Reported Mean % WT Binding values for the following binders.
# target.or.system: human CD33 S158A (human, UniProt P20138 18-364)
# Sequence (P20138 18-364 S158A limits assumed): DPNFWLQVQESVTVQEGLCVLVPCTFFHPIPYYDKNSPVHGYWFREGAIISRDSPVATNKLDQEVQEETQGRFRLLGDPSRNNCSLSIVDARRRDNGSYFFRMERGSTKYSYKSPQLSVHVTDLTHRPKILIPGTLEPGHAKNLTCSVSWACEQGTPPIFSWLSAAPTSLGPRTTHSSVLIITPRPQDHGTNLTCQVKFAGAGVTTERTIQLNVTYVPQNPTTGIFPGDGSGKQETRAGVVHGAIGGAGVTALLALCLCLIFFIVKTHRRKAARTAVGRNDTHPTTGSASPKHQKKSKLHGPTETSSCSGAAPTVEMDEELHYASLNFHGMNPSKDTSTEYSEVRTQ
# experimental.protocol: flow cytometry on HEK293-T, alanine scan
Could you give me the number in % WT binding? Just the number is fine.

Examples with answers:
binder	Mean % WT Binding, % WT binding
Refmab #4 (antibody, V domains shown, The alanine scan used IgG or Fab) VH: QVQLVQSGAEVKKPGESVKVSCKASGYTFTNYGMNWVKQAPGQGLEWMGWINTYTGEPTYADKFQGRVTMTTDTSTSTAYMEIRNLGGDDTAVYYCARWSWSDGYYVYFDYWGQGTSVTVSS VL: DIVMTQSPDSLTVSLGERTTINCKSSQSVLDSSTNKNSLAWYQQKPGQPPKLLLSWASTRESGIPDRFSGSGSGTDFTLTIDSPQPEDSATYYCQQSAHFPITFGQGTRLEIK	98
Refmab #3 (antibody, V domains shown, The alanine scan used IgG or Fab) VH: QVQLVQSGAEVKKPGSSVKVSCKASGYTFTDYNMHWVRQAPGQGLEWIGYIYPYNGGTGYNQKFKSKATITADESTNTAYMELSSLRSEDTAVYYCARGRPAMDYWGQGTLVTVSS VL: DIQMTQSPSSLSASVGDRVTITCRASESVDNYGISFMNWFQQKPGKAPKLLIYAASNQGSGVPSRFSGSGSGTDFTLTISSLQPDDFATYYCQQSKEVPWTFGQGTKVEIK	111

Proceeding to the next binder to report its Mean % WT Binding.
In: Quick check: Mean % WT Binding of Refmab #2 (antibody, V domains shown, The alanine scan used IgG or Fab) VH: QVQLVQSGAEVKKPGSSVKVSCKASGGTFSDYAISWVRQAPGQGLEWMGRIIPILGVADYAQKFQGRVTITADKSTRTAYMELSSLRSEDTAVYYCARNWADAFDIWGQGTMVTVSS VL: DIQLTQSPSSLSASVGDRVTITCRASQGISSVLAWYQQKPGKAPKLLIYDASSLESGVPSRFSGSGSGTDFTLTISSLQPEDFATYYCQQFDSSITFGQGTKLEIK ?
Out: 111
